All values here come from ChEMBL document CHEMBL1201862.

System: HOP-92
assay: NCI tumour cell line growth inhibition, 48 h
Calls of active or inactive are those of the source. Rule as the data show it: active = GI50 up to about 1.1 µM and inactive = higher.
parameterMeasured: GI50

Observe how each entry below is paired with its result.
O=C(NN=C1NCCCN1)c1ccco1: > 100 µM (inactive)
N#C[BH2-][n+]1cn(C2CC(OP(=O)(O)OCC3OC(n4cnc5c(N)ncnc54)CC3O)C(CO)O2)c2nc(N)[nH]c(=O)c21 (stereo not given): > 100 µM (inactive)
O=C(N/N=C/c1ccc([N+](=O)[O-])cc1)c1cccc2nc3ccccc3nc12: > 51.9 µM (inactive)
O/N=C1/C(=C/c2ccc(Oc3ccccc3)cc2)CCCC1C(NO)c1ccc(Oc2ccccc2)cc1 (stereo not given): 17.9 µM (inactive)
COc1ccc(C(OCC2OC(n3cnc4c(=O)n(Cc5ccccc5[N+](=O)[O-])nnc43)C(O)C2O)(c2ccccc2)c2ccc(OC)cc2)cc1 (stereo not given): 2.38 µM (inactive)

Now consider the entry below.
Summary for this molecule, COC(=O)C1C(O)C(C)C(O)C(C)C=C(C)C2=C3C(=C(C)C(=O)c4c(O)c(c(C)c(OC(C)=O)c43)NC(=O)C(C)=C/C=C\C(C)C(O)C(C)C1O)OCO2 (stereo not given) : GI50 is 14.9 µM (inactive)
